Test system: 786-0 renal
protocolNotes: NCI tumour cell line growth inhibition, 48 h
measurementKind: TGI

| compound | TGI |
| --- | --- |
| O=C(Nc1cccc(NC(=O)c2cc(=O)c3ccccc3o2)n1)c1cc(=O)c2ccccc2o1 | > 100 µM |
| O=C1c2ccccc2C(=O)N1c1nc(-c2ccc(Cl)cc2)cc(N2N=C(c3ccc(Br)cc3)CC2c2ccccc2)n1 (configuration not stated) | > 34.1 µM |
| CC(C)OC1OC(CO)C(O)CC1n1cc(F)c(=O)[nH]c1=O (configuration not stated) | > 100 µM |
| CC(C)(C)C1CC[C@H](O)[C@H]([C@H](O)CC2CC(=O)N(c3ccccc3)C(=O)C2)C1 (some centres not stated) | > 100 µM |

So what's the measured TGI for this one? `COc1cc(NC(=O)Nc2cnc(Nc3ccc(N4CCOCC4)cc3)nc2Oc2cccc(OC)c2)cc(OC)c1` 1.88 µM

So what's the measured TGI for this one? CC1OC2OC3C(OCC(O)C3O)OC(=O)[C@]34CCC(C)(C)CC3C3=CCC5[C@@]6(C)C[C@H](O)[C@H](OC7OC(CO)C(O)C(O)C7OC7OCC(OC(=O)CC(C)(O)CC(=O)OC1C(OC1OC(CO)C(O)C(O)C1O)C2O)C(O)C7O)[C@@](C)(CO)C6CC[C@@]5(C)[C@]3(C)CC4 (some centres not stated) 15.5 µM

So what's the measured TGI for this one? `O=c1c2ccccc2oc2ccc(OCCCCCCN3CCCCCC3)cc12` 4.35 µM

So what's the measured TGI for this one? `CC(C)C(=O)Oc1cc2c(=O)oc3c(OC(=O)C(C)C)c(OC(=O)C(C)C)cc4c(=O)oc(c1OC(=O)C(C)C)c2c34` > 100 µM

So what's the measured TGI for this one? CC(=O)C1C(=O)N(C(C)C)C[C@@H]2CCC(=O)C[C@H]12 (some centres not stated) > 100 µM

###

System: CCRF-CEM leukemia
protocolNotes: NCI tumour cell line growth inhibition, 48 h
measurementKind: TGI

Some solved cases for reference:
| compound | TGI |
| --- | --- |
| CCOC(=O)C(=O)C(=O)NN(C)C1=NCCN1 | > 100 µM |
| NCCOCC(N)C(=O)O (stereo unspecified) | > 100 µM |
| CSc1nc(NC(C)C)c2c(n1)Sc1nc3ccccc3n1C2O (stereo unspecified) | 4.95 µM |
| C(/Cc1ccc2c(c1)OCO2)=N\NC1=NCCCN1 | > 100 µM |

So what's the measured TGI for this one? `CC/C=C\C/C=C\C[C@H](O)C/C=C1/C(=O)C=C[C@@H]1C/C=C\CCCC(=O)OC` 1.77 µM

So what's the measured TGI for this one? CC(=O)Oc1ccc2c(c1)CC[C@@H]1C2CC[C@]2(C)C(=O)NC(=O)CC12 (stereo partly specified) > 100 µM

So what's the measured TGI for this one? `CN1CCc2c1nc(-c1ccc([N+](=O)[O-])cc1)c1c2N(C)CC1` > 100 µM

###

Tested on: MOLT-4 leukemia
protocolNotes: NCI tumour cell line growth inhibition, 48 h
measurementKind: TGI (µM)
Express it in µM; write the number only.

Some solved cases for reference:
| compound | TGI (µM) |
| --- | --- |
| CO[C@]1(CN2CCN3CCCC[C@@H]3C2)/C=C/C[C@H](C)[C@@H](C)S(=O)(=O)NC(=O)c2ccc3c(c2)N(C[C@@H]2CC[C@H]21)C[C@@]1(CCCc2cc(Cl)ccc21)CO3 | 2.1 |
| COc1ccc(CCc2cc(OC)c(OC)c(OC)c2)cc1 | 6.26 |
| Cc1cc(C(O)CN(C)C)cc2c1ccc1cc(C(C)C)ccc12 (configuration not stated) | 5.22 |
| Cc1cc(Cl)cc2c1NC(=O)C2=O (tested in a mixture with another compound) | 54.7 |
| Nc1ccc(S(=O)(=O)Nc2cnc3c(Cl)cccc3n2)cc1 | 565 |

So what's the measured TGI for this one? NCCC1CN(C(=O)OCc2ccccc2)c2ccccc21 (configuration not stated) 52.1

So what's the measured TGI for this one? CC1OC(OC2CCC3(C=O)C4CCC5(C)C(C6=CC(=O)OC6)CCC5(O)C4CCC3(O)C2)C(O)C(O)C1O (configuration not stated) 1.6e-05

So what's the measured TGI for this one? CC(C)C1(O)C(=O)N(c2c(F)c(F)c(F)c(F)c2F)C(=S)N1CCSc1ccccc1 (configuration not stated) 30.7

So what's the measured TGI for this one? N#CC1C=Cc2ccccc2N1C(=O)Oc1ccccc1 (configuration not stated) 93.8

So what's the measured TGI for this one? `Oc1[nH]c2cc(Cl)ccc2c1/C=c1/ccc2c(c1)N=C(c1cc(F)cc(F)c1)N=2` 5.72

So what's the measured TGI for this one? CC1COCC(C)N1C1=C(Cl)C(=O)c2ccccc2C1=O (configuration not stated) 7.5
